test.description: Toxicity liver stage against HepG2, at 10uM
Format: cell-based
Design: test concentration 10 uM, cell line HepG2-A16-CD81EGFP
condition.context: human, HepG2-A16-CD81EGFP cells; read-out: INHIBITION
# reported cytotoxicity at 10 µM; entries follow
property.measured: cytotoxicity at 10 µM (%)

>>> readout_value("CN(CCO)Cc1nnc(C2CCN(CC3[C@H]4CNC[C@@H]34)CC2)n1C (stereo partly drawn)")
-0.517
>>> readout_value("c1cc(COC[C@@H]2CCC[C@@]23CNCCO3)ccn1")
1.26
>>> readout_value("CCc1cnc(N2CCC3(CC2)CN(c2cccnc2)C(=O)CO3)nc1")
7.18
>>> readout_value("O=S1(=O)CCC(n2cc(C3=CCN(CCc4ccccc4)CC3)cn2)C1 (stereo not drawn)")
-2.64
>>> readout_value("CCn1ncc2c1CCCC2NCC1=Cc2ccccc2OC1 (stereo not drawn)")
-4.31
>>> readout_value("CN1CCC(c2nnc(CN3CCCCC3)n2C)CC1")
16.4
>>> readout_value("COc1ccc(COCC(=O)N2CCCC(n3cncn3)C2)cc1 (stereo not drawn)")
-11.1
>>> readout_value("Cc1cc(F)ccc1C(=O)N1C[C@@H]2COC[C@]2(CN(C)C)C1")
-142
>>> readout_value("CC(=O)NCCSCCOc1cccc(Br)c1")
10.1
>>> readout_value("Cc1ccc(CN2CCN(C)c3ncccc3C2)o1")
-79.6
>>> readout_value("Cc1nnc(NCCc2nc3ccc(F)cc3n2C)c(C#N)c1C")
-0.744
>>> readout_value("O=S(=O)(Nc1cnc(N2CCCC2)nc1)c1ccc(C(F)(F)F)cc1")
3.15
>>> readout_value("CN(C)C1(CNC(=O)Cc2ccc(F)cc2)CCOCC1")
6.03
>>> readout_value("CCN(C)S(=O)(=O)NC(C)c1cnc(N(C)C2CCCCC2)nc1C (stereo not drawn)")
-123
>>> readout_value("CN(C)c1ccc(C(=O)N2CCCC2c2cnn(C)c2)nn1 (stereo not drawn)")
-10.3
>>> readout_value("CN1CCc2[nH]cnc2C12CCN(Cc1ccc3nsnc3c1)CC2")
5.05
>>> readout_value("NC(=O)c1cnn2c1NCC(CNCC1(c3ccccc3)CCCC1)C2 (stereo not drawn)")
-7.38
>>> readout_value("CN1CCc2ncc(CNc3cc(N(C)C)ncn3)n2CC1")
0.749
>>> readout_value("CC(=O)Nc1ccc2nc(-c3nccn3CC(C)(C)CO)ccc2c1")
3.89
>>> readout_value("CC(NC(=O)NCCCN1CCCC1)c1nncn1C (stereo not drawn)")
-0.373
>>> readout_value("Cc1nc2[nH]cnc(NCCN3CCCC3)c-2n1")
-12
>>> readout_value("CCc1cc(N(C)Cc2nonc2C)nc(N2CCOCC2)n1")
-8.07
>>> readout_value("O=C(c1cccc(-c2ccc(F)cc2)c1)N1CCC2(CC1)[C@H](O)C[C@@H]2O")
2.37
>>> readout_value("CC(C)(C)CC(=O)N1CCCC2(CC(C(=O)Nc3ccccc3)=NO2)C1 (stereo not drawn)")
-6.63
>>> readout_value("OC1CCN(Cc2ccc(CNc3ccc(Cl)cn3)cc2)CC1")
0.313
>>> readout_value("Cc1ccc(CN2CCN(Cc3ccc4nonc4c3)CC2=O)cc1")
-1.9
>>> readout_value("CN1C(=O)[C@@H]2CC[C@H]1CN(C(=O)c1nnc3n1CCCCC3)C2")
-6.34
>>> readout_value("Cn1nnc2c1C(COCC1CC1)CN(C(=O)Cc1ccsc1)C2 (stereo not drawn)")
-0.11
>>> readout_value("CCC(NC(=O)COC)c1ccccc1OCC(=O)N1CCCC1 (stereo not drawn)")
-6.39
>>> readout_value("CCS(=O)(=O)CC(=O)NC(C)c1ccccc1Oc1ccccc1 (stereo not drawn)")
-2.97
>>> readout_value("CCN(Cc1ccncc1)CC1(O)CCN(C(=O)c2cccc(C)n2)C1 (stereo not drawn)")
-4.08
>>> readout_value("Cc1nc2c(c(=O)[nH]1)CN(Cc1ccc3c(c1)CCCN3C)CC2")
-3.55
>>> readout_value("COc1ccc(OC)c2c(C)cc(N(C)CCO)nc12")
6.36
>>> readout_value("COC1CCN(S(=O)(=O)N2CC[C@@](O)(C3CCC3)[C@H](C)C2)CC1")
6.8
>>> readout_value("Fc1ccc(-c2cnc(CNC3CCc4ncnn4C3)o2)cc1 (stereo not drawn)")
-0.174
>>> readout_value("O=C(c1cc(Cl)c[nH]c1=O)N1C[C@H]2CC[C@@H](C1)N(Cc1ccccc1)C2")
-113
>>> readout_value("COCCc1noc(-c2cc(Cl)c3c(c2)OCCCO3)n1")
3.61
>>> readout_value("CN(C)CCSc1ccc(NC(=O)c2nccn3ccnc23)cc1")
-6.25
>>> readout_value("O=C(CCCNc1ncccn1)N1CCCC(n2cncn2)C1 (stereo not drawn)")
-4.56
>>> readout_value("Oc1cc(CN2CCCCC2c2cccnc2)nc2c(F)cccc12 (stereo not drawn)")
-6.88
>>> readout_value("COc1ccc(-c2nc(CN(C)Cc3nncn3C)c(C)o2)c(C)c1C")
-8.87
>>> readout_value("O=C(NCCNC1CCCC1)c1cccs1")
-0.579
>>> readout_value("COC(=O)C(C)Sc1nnnn1C1CCOCC1 (stereo not drawn)")
-10.5
>>> readout_value("Cc1cc(C)cc(N2CCN(Cc3cccnc3)CC2=O)c1")
5.02
>>> readout_value("COc1cccc(C(=O)N2CC[C@@H]3[C@H](CC2)N(C)CCS3(=O)=O)c1")
-129
>>> readout_value("O=C(c1ccncc1)N1CCc2[nH]nc(Nc3ccccc3)c2C1")
3.13
>>> readout_value("COc1nn(C)c2c1CCCN(S(=O)(=O)c1cccs1)C2")
-112
>>> readout_value("CC(SCC(=O)NCCC#N)c1ccc(Cl)cc1 (stereo not drawn)")
10.6

###

test.description: Toxicity liver stage against HepG2, at 10uM
Type: cell-based
Set-up: test concentration 10 uM, cell line HepG2-A16-CD81EGFP
condition.context: human, HepG2-A16-CD81EGFP cells; read-out: INHIBITION
property.measured: cytotoxicity at 10 µM (%)

>>> readout_value("COc1ccc2c(c1)OC1(CCN(Cc3cccc(C)c3)CC1)CC2=O")
5.5
>>> readout_value("O=C(Nc1ccnc(OC2CCOC2)c1)c1ccccc1Cl (stereo unspecified)")
8.5
>>> readout_value("c1cnn(Cc2cn3c(n2)CN(Cc2nccs2)CC3)c1")
2.76
>>> readout_value("CCC[C@H]1CN(Cc2cncn2C)C[C@@H]1NC(=O)C1(COC)CCC1")
-8.26
>>> readout_value("Cn1ccnc1CN1CCC(F)(F)C2(CCN(c3cccnc3)C2)C1 (stereo unspecified)")
-98.8
>>> readout_value("COc1ncccc1CN1CCc2[nH]nc(C(=O)N3CCCC3C)c2C1 (stereo unspecified)")
-4.4
>>> readout_value("CC(C)n1ccnc1CN1CCCN(C(=O)c2cnc[nH]2)CC1")
-11.9
>>> readout_value("O=C(c1cnco1)N1C[C@@H]2CC[C@H](Oc3ccccc3F)[C@@H]2C1")
5.22
>>> readout_value("Cc1ncc(CN)c(-c2cn(C)c3ccccc23)n1")
2.97
>>> readout_value("Cc1cccc2sc(NC(=O)CN3CCCC4(CC3)CNC(=O)O4)nc12 (stereo unspecified)")
-4.26
>>> readout_value("COCc1ncc(CN2C[C@@H](C(=O)O)[C@H](C(C)C)C2)cn1")
-2.97

###

test.description: Toxicity liver stage against HepG2, at 10uM
Type: cell-based
Parameters: test concentration 10 uM, cell line HepG2-A16-CD81EGFP
condition.context: human, HepG2-A16-CD81EGFP cells; read-out: INHIBITION
property.measured: cytotoxicity at 10 µM (%)

>>> readout_value("Cc1cnn(C2CCCN(C(=O)c3cc(C)sc3C)C2)c1 (configuration not stated)")
-1.4
>>> readout_value("CN(Cc1cnn(C)c1)C(=O)NCC1CCS(=O)(=O)C1 (configuration not stated)")
10.3
>>> readout_value("CN(CCN1CCCCCC1)Cc1cnc(N)nc1")
0.993
>>> readout_value("Cc1csc(N2CCN(CC(=O)NC3CCOCC3)CC2C)n1 (configuration not stated)")
-7.13
>>> readout_value("Cn1cc(N2CCCC(SCc3ccco3)C2=O)cn1 (configuration not stated)")
17.3
>>> readout_value("COc1ncc(CN2CCCC(c3[nH]ncc3S(C)(=O)=O)C2)cn1 (configuration not stated)")
7.24
>>> readout_value("Cc1ccc(-c2ncc(C(=O)NS(C)(=O)=O)s2)c(C)c1")
-8.91
>>> readout_value("COCCN1CCC12CCN(C(=O)c1ccsc1)CC2")
-145
>>> readout_value("COc1cccc(-c2noc(C3CCN(Cc4ccncc4)C3)n2)c1 (configuration not stated)")
25.9
>>> readout_value("COCC(=O)NCc1cc2n(n1)CCCN(Cc1ccccc1SC)C2")
2.04
>>> readout_value("NC(=O)N1C[C@@H]2CN(C(=O)c3ccco3)C[C@@H]2C1")
-2.54
>>> readout_value("CCN(C)c1ccc(CNC(=O)c2ccc(NC(N)=O)cc2)cc1F")
7.52
